Quick list: IC50 per entry.
System under test: Ephrin type-A receptor 2 (Homo sapiens)
Sequence (P29317 whole entry): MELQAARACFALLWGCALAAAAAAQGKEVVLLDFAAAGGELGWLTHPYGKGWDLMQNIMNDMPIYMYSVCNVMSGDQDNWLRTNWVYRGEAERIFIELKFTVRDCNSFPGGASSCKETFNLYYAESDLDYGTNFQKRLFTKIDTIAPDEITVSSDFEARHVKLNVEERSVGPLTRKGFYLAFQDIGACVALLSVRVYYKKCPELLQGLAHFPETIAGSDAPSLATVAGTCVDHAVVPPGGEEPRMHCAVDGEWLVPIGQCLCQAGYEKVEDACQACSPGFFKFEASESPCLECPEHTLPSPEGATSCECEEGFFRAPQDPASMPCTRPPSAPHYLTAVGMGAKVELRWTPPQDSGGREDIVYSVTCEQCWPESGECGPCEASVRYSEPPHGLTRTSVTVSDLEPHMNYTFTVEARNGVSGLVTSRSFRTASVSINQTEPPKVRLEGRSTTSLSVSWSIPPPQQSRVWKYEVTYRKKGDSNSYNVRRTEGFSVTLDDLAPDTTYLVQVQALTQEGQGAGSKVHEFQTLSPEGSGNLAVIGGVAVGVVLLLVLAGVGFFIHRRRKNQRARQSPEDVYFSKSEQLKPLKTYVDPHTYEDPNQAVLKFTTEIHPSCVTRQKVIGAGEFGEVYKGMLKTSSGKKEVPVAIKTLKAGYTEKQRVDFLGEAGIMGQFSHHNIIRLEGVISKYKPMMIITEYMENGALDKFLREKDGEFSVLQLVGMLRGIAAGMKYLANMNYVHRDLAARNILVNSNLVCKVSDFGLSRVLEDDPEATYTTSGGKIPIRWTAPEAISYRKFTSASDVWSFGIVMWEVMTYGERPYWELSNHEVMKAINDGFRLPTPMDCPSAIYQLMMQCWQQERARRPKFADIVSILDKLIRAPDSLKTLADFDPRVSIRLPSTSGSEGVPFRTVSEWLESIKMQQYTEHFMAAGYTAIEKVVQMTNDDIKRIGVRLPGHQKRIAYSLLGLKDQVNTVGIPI
Test protocol: In Vitro Biochemical Kinase Assay

Examples from the recorded data:
- Compound structure: "CCN1CCN(Cc2ccc(NC(=O)c3cc(NC(=O)c4cncc(-c5cccs5)c4)cc(OC)c3)cc2C(F)(F)F)CC1"
  IC50: "> 10 µM"
- Compound structure: "CCN1CCN(Cc2ccc(NC(=O)c3ccnc(NC(=O)c4cncc(-c5cccs5)c4)c3)cc2C(F)(F)F)CC1"
  IC50: "> 10 µM"

In the following, a different compound is considered.
Q: What does the data say about its IC50? Entry: CCN1CCN(Cc2ccc(NC(=O)c3cncc(NC(=O)c4cncc(-c5cccs5)c4)c3)cc2C(F)(F)F)CC1
A: > 10 µM
